assay: Cmax in healthy human plasma at 400 mg, po Bid for 1 week by LC-MS/MS analysis; format: ADME, organism-based; design: dose 400 mg, route oral
measured-parameter: Cmax (ng/mL)
Give your result in ng/mL as a bare value.

// query Request the reported Cmax associated with Cc1nnc(C(=O)NC(C)(C)c2nc(C(=O)NCc3ccc(F)cc3)c(O)c(=O)n2C)o1 [RALTEGRAVIR]
// result 1020

---

assay: Plasma concentration in healthy human at 400 mg, po qd coadministered with atazanavir 400 mg, po qd for 1 week measured 12 hrs post dose by LC-MS/MS analysis
measured-parameter: concentration at 12 h (ng/mL)
Give your result in ng/mL as a bare value.

// query Request the reported concentration at 12 h associated with Cc1nnc(C(=O)NC(C)(C)c2nc(C(=O)NCc3ccc(F)cc3)c(O)c(=O)n2C)o1
// result 69

---

experiment: Apparent total plasma clearance in healthy human at 400 mg, po Bid for 1 week by LC-MS/MS analysis; assay type: ADME, organism-based
measured-parameter: CL/F (mL/min)
Give your result in mL/min as a bare value.

// query Request the reported CL/F associated with Cc1nnc(C(=O)NC(C)(C)c2nc(C(=O)NCc3ccc(F)cc3)c(O)c(=O)n2C)o1
// result 1890

---

experiment: Ctau in healthy human plasma at 400 mg, po Bid for 1 week by LC-MS/MS analysis; type: ADME, organism-based; conditions: read-out: Ctau
measured-parameter: concentration at 168 h (ng/mL)
Give your result in ng/mL as a bare value.

// query Request the reported concentration at 168 h associated with Cc1nnc(C(=O)NC(C)(C)c2nc(C(=O)NCc3ccc(F)cc3)c(O)c(=O)n2C)o1
// result 46

---

assay: Plasma concentration in healthy human at 400 mg, po Bid for 1 week measured 12 hrs post dose by LC-MS/MS analysis; type: ADME, organism-based
measured-parameter: concentration at 12 h

// query Request the reported concentration at 12 h associated with Cc1nnc(C(=O)NC(C)(C)c2nc(C(=O)NCc3ccc(F)cc3)c(O)c(=O)n2C)o1
// result 46 ng/mL

---

assay: Ctau in healthy human plasma at 400 mg, po qd coadministered with atazanavir 400 mg, po qd for 1 week by LC-MS/MS analysis
measured-parameter: concentration at 168 h (µg/mL)
Give your result in µg/mL as a bare value.

// query Request the reported concentration at 168 h associated with Cc1nnc(C(=O)NC(C)(C)c2nc(C(=O)NCc3ccc(F)cc3)c(O)c(=O)n2C)o1
// result 0.018

---

assay: Apparent clearance of oral drug in healthy human assessed as drug excreted unchanged at 400 mg, po […] coadministered with atazanavir 400 mg, po qd for 1 week by LC-MS/MS analysis; type: ADME, organism-based; details: in vivo, read-out: Fraction excreted unchanged
measured-parameter: dose excreted at 168 h

// query Request the reported dose excreted at 168 h associated with Cc1nnc(C(=O)NC(C)(C)c2nc(C(=O)NCc3ccc(F)cc3)c(O)c(=O)n2C)o1 [RALTEGRAVIR]
// result 3.5%

---

assay: Cmax in healthy human plasma at 400 mg, po qd coadministered with atazanavir 400 mg, po qd for 1 week by LC-MS/MS analysis
measured-parameter: Cmax (ng/mL)
Give your result in ng/mL as a bare value.

// query Request the reported Cmax associated with Cc1nnc(C(=O)NC(C)(C)c2nc(C(=O)NCc3ccc(F)cc3)c(O)c(=O)n2C)o1 [RALTEGRAVIR]
// result 1400
